Reference source: patent US20080194574A1

The compounds listed here are annotated with their pIC50.
# tested.system: viral kinase pUL-97 (Human cytomegalovirus)
# Construct: The pUL-97 gene was cloned into a baculovirus vector; GST (glutathione S-transferase) (N); made in house; host or cells: Sf9 insect cells, baculovirus
# Sequence (P16788 whole entry): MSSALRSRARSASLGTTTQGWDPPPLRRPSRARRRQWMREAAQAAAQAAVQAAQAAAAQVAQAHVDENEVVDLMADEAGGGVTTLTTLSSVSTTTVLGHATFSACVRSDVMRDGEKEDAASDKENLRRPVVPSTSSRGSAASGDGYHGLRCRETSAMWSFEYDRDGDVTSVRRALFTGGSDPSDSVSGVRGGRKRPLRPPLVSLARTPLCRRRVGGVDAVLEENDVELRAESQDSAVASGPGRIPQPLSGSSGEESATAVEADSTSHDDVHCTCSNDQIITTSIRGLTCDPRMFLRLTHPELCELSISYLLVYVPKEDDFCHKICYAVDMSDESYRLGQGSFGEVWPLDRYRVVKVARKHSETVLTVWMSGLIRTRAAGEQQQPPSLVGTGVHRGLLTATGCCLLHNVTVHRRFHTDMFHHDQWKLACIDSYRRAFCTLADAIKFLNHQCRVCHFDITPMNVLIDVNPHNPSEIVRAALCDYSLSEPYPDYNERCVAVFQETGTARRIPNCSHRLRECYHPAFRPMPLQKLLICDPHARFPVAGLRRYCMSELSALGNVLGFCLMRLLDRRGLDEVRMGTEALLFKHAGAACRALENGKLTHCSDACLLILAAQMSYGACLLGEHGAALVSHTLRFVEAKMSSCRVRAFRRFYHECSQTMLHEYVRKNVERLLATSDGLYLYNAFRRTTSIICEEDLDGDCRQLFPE
# protocol.details: UL97 kinase assay on Immobilon plate
# Format: biochemical
# condition.context: inhibition of UL 97 kinase activity; class by IC50 / % inhibition at 10 or 100 μM; read-out: Activity Class [A, B, C]
pIC50: −log10 of the molar value.

| chemical.string | pIC50 |
| --- | --- |
| CC(=O)c1cccc(-c2cncc(N3CCN(c4ccccc4F)CC3)n2)c1 | 5.00 to 6.00 |
| Clc1ccc(-c2cncc(NCc3ccccc3)n2)cc1 | 4.00 to 5.00 |
| CN(C)c1ccc(-c2cncc(N3CCN(c4ccccc4F)CC3)n2)cc1 | 5.00 to 6.00 |
| CCOc1ccc(-c2cncc(N3CCN(c4cccc(Cl)c4)CC3)n2)cc1 | 5.00 to 6.00 |
| Clc1ccc(-c2cncc(N3CCN(c4ccncc4)CC3)n2)cc1 | 5.00 to 6.00 |
| COc1cccc(-c2cncc(N3CCN(c4cccc(Cl)c4)CC3)n2)c1 | 5.00 to 6.00 |
| Cc1ccc(N2CCN(c3cncc(-c4ccc(F)cc4)n3)CC2)cc1 | 5.00 to 6.00 |
| COc1ccccc1N1CCN(c2cncc(-c3ccc(C(C)(C)C)cc3)n2)CC1 | 4.00 to 5.00 |
| Oc1ccc(-c2cncc(NCc3cccs3)n2)cc1 | > 6.00 |
